- system: Carnitine O-palmitoyltransferase 1, liver isoform (Rattus norvegicus, UniProt P32198)
- Sequence (P32198 whole entry, canonical isoform): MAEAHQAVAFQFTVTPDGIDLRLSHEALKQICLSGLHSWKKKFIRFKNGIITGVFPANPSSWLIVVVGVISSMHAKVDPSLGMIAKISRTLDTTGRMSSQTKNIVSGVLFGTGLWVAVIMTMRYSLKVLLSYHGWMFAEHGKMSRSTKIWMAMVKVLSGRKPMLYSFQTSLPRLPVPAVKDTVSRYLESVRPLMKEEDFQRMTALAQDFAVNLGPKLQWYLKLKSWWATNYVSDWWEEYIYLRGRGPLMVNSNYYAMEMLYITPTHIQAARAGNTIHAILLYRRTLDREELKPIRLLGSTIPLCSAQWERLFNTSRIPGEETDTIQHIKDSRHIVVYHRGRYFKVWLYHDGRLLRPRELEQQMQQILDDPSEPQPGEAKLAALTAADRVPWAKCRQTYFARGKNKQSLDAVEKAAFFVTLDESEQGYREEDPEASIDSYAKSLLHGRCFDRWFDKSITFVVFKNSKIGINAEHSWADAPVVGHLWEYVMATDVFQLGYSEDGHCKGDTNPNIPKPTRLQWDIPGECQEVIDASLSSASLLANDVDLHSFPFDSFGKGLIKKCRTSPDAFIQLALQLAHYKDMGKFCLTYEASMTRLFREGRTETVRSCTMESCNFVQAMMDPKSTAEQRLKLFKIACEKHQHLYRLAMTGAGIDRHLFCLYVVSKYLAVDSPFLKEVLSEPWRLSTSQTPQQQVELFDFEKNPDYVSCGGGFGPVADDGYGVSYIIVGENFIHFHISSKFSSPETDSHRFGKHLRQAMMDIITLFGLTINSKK
- measurement-notes: SUPPLEMENTARY: Inhibition of Carnitine palmitoyltransferase 1, liver isoform
Items are presented alongside their recorded pIC50.
To interpret pIC50, take it as minus log10 of a concentration measured in moles per litre.

Field: example entries. Status: answers known.
COc1ccc(Cl)cc1Cc1c[nH]c2ccc(C(=O)Nc3nc(CC(=O)O)cs3)cc12    7.23
COc1ccc(Cl)cc1S(=O)(=O)c1nn(CCC(=O)O)c2ccc(C(=O)Nc3ccccc3)cc12    8.18
O=C1Cc2cc(-c3noc(C4C5CC5CN4C(=O)COc4ccccc4)n3)ccc2N1 (centres undefined)    6.41
CCN(CC)C(=O)c1ccc(-c2noc([C@H]3CCCCN3C(=O)COc3ccccc3)n2)cc1    5.98
COc1ccc(Cl)cc1S(=O)(=O)N(c1cc(C(=O)Nc2ccn(CC(=O)O)n2)cc2c1OCO2)C(C)C    5.22
Cn1ccc(-c2nc([C@H]3CCCCN3C(=O)COc3ccccc3)no2)n1    6.26

Using the record for NS(=O)(=O)c1ccc(C#C[C@H]2CCCCN2C(=O)COc2ccccc2)cc1 , report its pIC50.
7.08

Which measured pIC50 value corresponds to Cc1cc(C)cc(S(=O)(=O)c2nn(CCC(=O)O)c3ccc(C(=O)Nc4ccccc4)cc23)c1 ?
7.65

pIC50 lookup needed for COc1ccc(Cl)cc1S(=O)(=O)N1COc2ccc(C(=O)Nc3ccc(C(=O)O)cc3)cc21 , thanks.
7.39

Values from ChEMBL document CHEMBL3431459
